Biological target: human GLP-1 receptor (Homo sapiens, UniProt P43220)
Construct: expressed in transfected cells; host or cells: BHK (Baby Hamster Kidney) cells, clone BHK 467-12A KZ-10, stably transfected, with CRE-luciferase reporter
Sequence (P43220 24-463): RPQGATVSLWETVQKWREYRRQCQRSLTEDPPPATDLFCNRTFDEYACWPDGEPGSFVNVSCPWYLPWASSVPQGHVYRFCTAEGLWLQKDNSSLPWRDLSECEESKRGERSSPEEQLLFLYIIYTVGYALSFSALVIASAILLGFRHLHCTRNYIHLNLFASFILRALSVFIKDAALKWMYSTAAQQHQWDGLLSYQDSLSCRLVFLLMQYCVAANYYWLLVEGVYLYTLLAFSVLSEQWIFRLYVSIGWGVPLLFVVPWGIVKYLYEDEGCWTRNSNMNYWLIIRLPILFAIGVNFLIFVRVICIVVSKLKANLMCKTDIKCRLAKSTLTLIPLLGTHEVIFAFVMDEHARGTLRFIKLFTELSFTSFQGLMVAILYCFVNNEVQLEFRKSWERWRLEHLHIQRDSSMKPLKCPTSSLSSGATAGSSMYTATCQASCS
Assay: Human GLP-1 receptor in vitro potency assay (CRE-luciferase reporter, BHK cells)
Format: cell-based
Details: Table 4a; BHK cells expressing human GLP-1R, CRE-Luc, 3 hours; read-out: Human GLP-1R potency [EC50 (pM)]
Starred links: 1 amine or outer side, 2 acyl side, 3 side chain; linkers in the order of their positions; H or OH if unused. Non-standard residues stand in square brackets, D forms with d. Groups on a side chain read outwards from the residue. *: point of attachment. Butyryl(4-SO2NHCO(CH2)16Tz) = O=C(CCCCCCCCCCCCCCCCc1nnn[nH]1)NS(=O)(=O)CCCC(=O)*; C18 diacid = O=C(O)CCCCCCCCCCCCCCCCC(=O)*; C16 diacid = O=C(O)CCCCCCCCCCCCCCC(=O)*; γGlu = O=C(O)[C@H](CCC(=O)[*:2])N[*:1]; AEEA = NCCOCCOCC(=O)O; Aib = CC(C)(N)C(=O)O
# EC50 per record follows
MEASUREMENT_TYPE: EC50 (pM)

substance="HWEGTFTSDVSSYLEEK([AEEA-AEEA-γGlu-C18 diacid])AAREFIEWLVRGRGEASELSTAALGRLSAELHELATLPRTETGSGSP-NH2 [Compound 0271]" measurement_type=EC50 result=4.6
substance="H[Aib]EGTFTSDVSSYLEEQAARK([AEEA-AEEA-γGlu-C18 diacid])FIAWLVRGK([AEEA-AEEA-γGlu-C18 diacid])GGGGGGGGGEASELSTAALGRLSAELHELATLPRTETGSGSP-NH2 [Compound 0109]" measurement_type=EC50 result=3.2
substance="H-H[Aib]EGTFTSDK([AEEA-AEEA-γGlu-C16 diacid])SSYLEEQAAREFIAWLVRGRGGGGGEASELSTAALGRLSAELHELK([AEEA-AEEA-γGlu-C16 diacid])TLPRTETGSGSP-NH2 [Compound 0260]" measurement_type=EC50 result=11.9
substance="H-H[Aib]EGTFTSDVSSYLEEQAAREFIEWLVRGK(Butyryl(4-SO2NHCO(CH2)16Tz))ASELSTAALGRLSAELHELATLPRTETGSGSP-NH2 [Compound 0147]" measurement_type=EC50 result=36.8

* * *

Target: human GLP-1 receptor (Homo sapiens, UniProt P43220)
Construct: expressed in transfected cells; host or cells: BHK (Baby Hamster Kidney) cells, clone BHK 467-12A KZ-10, stably transfected, with CRE-luciferase reporter
Test: Human GLP-1 receptor in vitro potency assay (CRE-luciferase reporter, BHK cells)
Format: cell-based
Conditions: Table 4a; BHK cells expressing human GLP-1R, CRE-Luc, 3 hours; read-out: Human GLP-1R potency [EC50 (pM)]
Starred links: 1 amine or outer side, 2 acyl side, 3 side chain; linkers in the order of their positions; H or OH if unused. Non-standard residues stand in square brackets, D forms with d. Groups on a side chain read outwards from the residue. *: point of attachment. C20 diacid = O=C(O)CCCCCCCCCCCCCCCCCCC(=O)*; C18 diacid = O=C(O)CCCCCCCCCCCCCCCCC(=O)*; γGlu = O=C(O)[C@H](CCC(=O)[*:2])N[*:1]; AEEA = NCCOCCOCC(=O)O; Aib = CC(C)(N)C(=O)O
MEASUREMENT_TYPE: EC50 (pM)

substance="H-H[Aib]EGTFTSDVSSYLEGQAAK([AEEA-AEEA-γGlu-C18 diacid])EFIAWLVRGRGQAPGQEPEASELSTAALGRLSAELHELATLPRTETGSGSP-NH2 [Compound 0156]" unit_spec=pM result=22.6
substance="H-H[Aib]EGTFTSDVSSYLEEQAARK([γGlu-C18 diacid])FIAWLVRGRGGGGGGGGK([γGlu-C18 diacid])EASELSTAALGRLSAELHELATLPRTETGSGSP-NH2 [Compound 0160]" unit_spec=pM result=11.9
substance="H-H[Aib]EGTFTSDVSSYLEGQAAREFIAWLVRGRK([AEEA-AEEA-γGlu-C18 diacid])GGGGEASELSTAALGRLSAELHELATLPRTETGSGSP-NH2 [Compound 0151]" unit_spec=pM result=10.4
substance="H-H[Aib]EGTFTSDVSK([γGlu-γGlu-γGlu-γGlu-C20 diacid])YLEEQAAREFIEWLVRGAAEASELSTAALGRLSAELHELATLPRTETGSGSP-NH2 [Compound 0632]" unit_spec=pM result=18.8

* * *

Target: human GLP-1 receptor (Homo sapiens)
Construct: expressed in transfected cells; host or cells: BHK (Baby Hamster Kidney) cells, clone BHK 467-12A KZ-10, stably transfected, with CRE-luciferase reporter
Experiment: Human GLP-1 receptor in vitro potency assay (CRE-luciferase reporter, BHK cells)
Type: cell-based
Details: Table 4a; BHK cells expressing human GLP-1R, CRE-Luc, 3 hours; read-out: Human GLP-1R potency [EC50 (pM)]
Starred links: 1 amine or outer side, 2 acyl side, 3 side chain; linkers in the order of their positions; H or OH if unused. Non-standard residues stand in square brackets, D forms with d. Groups on a side chain read outwards from the residue. *: point of attachment. C18 diacid = O=C(O)CCCCCCCCCCCCCCCCC(=O)*; C16 diacid = O=C(O)CCCCCCCCCCCCCCC(=O)*; γGlu = O=C(O)[C@H](CCC(=O)[*:2])N[*:1]; C14 diacid = O=C(O)CCCCCCCCCCCCC(=O)*; AEEA = NCCOCCOCC(=O)O; Aib = CC(C)(N)C(=O)O
# note: exactly 6 pM is not below, so it is not met; use met for EC50 strictly under it

substance="H-H[Aib]EGTFTSDVSSYLEGQAAREFIAWLVRGRGQEPK([AEEA-AEEA-γGlu-C18 diacid])GQAPEASELSTAALGRLSAELHELATLPRTETGSGSP-NH2 [Compound 0084]" assayed_target="human GLP-1 receptor (Homo sapiens)" discrete_label=met
substance="H-H[Aib]EGTFTSDVSK([AEEA-AEEA-γGlu-C14 diacid])YLEEQAVREFIAK([AEEA-AEEA-γGlu-C14 diacid])LVRGRGGGEASELSTAALGRLSAELHELATLPRTETGSGSP-NH2 [Compound 0484]" assayed_target="human GLP-1 receptor (Homo sapiens)" discrete_label="not met"
substance="H-H[Aib]EGTFTSDVSSYLEEQAAREFIAWLVRGK([AEEA-AEEA-γGlu-C16 diacid])GGGGGEASELSTAALGRLSAELHK([AEEA-AEEA-γGlu-C16 diacid])LATLPRTETGSGSP-NH2 [Compound 0280]" assayed_target="human GLP-1 receptor (Homo sapiens)" discrete_label="not met"

* * *

Target: human amylin receptor (hAmyR3) (Homo sapiens, UniProt O60896+P30988)
Construct: host or cells: BHK cells (Hollex-1 line: human calcitonin receptor (a) + CRE-Luc), further transfected with human RAMP3
Sequence (P30988 25-474): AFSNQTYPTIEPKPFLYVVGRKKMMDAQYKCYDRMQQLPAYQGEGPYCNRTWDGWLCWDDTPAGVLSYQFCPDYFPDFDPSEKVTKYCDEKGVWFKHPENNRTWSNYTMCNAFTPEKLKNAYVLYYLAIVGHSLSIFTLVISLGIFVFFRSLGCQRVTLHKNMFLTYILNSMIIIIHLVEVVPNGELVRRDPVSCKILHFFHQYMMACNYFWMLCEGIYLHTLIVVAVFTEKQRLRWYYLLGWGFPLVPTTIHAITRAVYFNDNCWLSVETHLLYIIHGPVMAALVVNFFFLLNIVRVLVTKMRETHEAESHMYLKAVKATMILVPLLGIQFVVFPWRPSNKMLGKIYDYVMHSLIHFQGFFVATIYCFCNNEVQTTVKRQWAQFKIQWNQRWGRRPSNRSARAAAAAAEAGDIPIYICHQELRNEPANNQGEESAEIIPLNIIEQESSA
Sequence (O60896 24-148): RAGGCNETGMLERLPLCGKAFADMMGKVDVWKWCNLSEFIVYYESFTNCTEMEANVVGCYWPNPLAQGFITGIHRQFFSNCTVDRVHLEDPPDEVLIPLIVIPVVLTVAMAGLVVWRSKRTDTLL
Assay: Human amylin receptor in vitro potency assay (CRE-luciferase reporter, BHK cells);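 further: BHK cells expressing human calcitonin receptor plus RAMP3 (amylin-3 receptor) with a CRE-luciferase reporter, agonist activity read as luminescence from cAMP-driven transcription, 7-point serial dilutions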
Assay type: cell-based
Conditions: Table 4a; BHK hAmyR3/CRE-Luc cells, 3 hours; read-out: Human AmyR3 potency [EC50 (pM)]
Starred links: 1 amine or outer side, 2 acyl side, 3 side chain; linkers in the order of their positions; H or OH if unused. Non-standard residues stand in square brackets, D forms with d. Groups on a side chain read outwards from the residue. *: point of attachment. C20 diacid = O=C(O)CCCCCCCCCCCCCCCCCCC(=O)*; C18 diacid = O=C(O)CCCCCCCCCCCCCCCCC(=O)*; C16 diacid = O=C(O)CCCCCCCCCCCCCCC(=O)*; γGlu = O=C(O)[C@H](CCC(=O)[*:2])N[*:1]; εLys = N[C@@H](CCCCN[*:1])C(=O)[*:2]; Trx = NC[C@H]1CC[C@H](C(=O)O)CC1; AEEA = NCCOCCOCC(=O)O; Aib = CC(C)(N)C(=O)O
Known EC50 of a selection of substances
MEASUREMENT_TYPE: EC50

substance="H-H[Aib]EGTFTSDVSSYLEGQAAK([AEEA-AEEA-γGlu-C20 diacid])EFIAWLVRGRGQEPGQAPEASELSTAALGRLSAELHELATLPRTETGSGSP-NH2 [Compound 0202]" assayed_target="human amylin receptor (hAmyR3) (Homo sapiens, UniProt O60896+P30988)" result="28.4 pM"
substance="H-H[Aib]EGTFTSK([AEEA-AEEA-γGlu-Trx-C20 diacid])VSSYLEEQAAREFIEWLVRGRGEASELSTAALGRLSAELHELATLPRTETGSGSP-NH2 [Compound 0417]" assayed_target="human amylin receptor (hAmyR3) (Homo sapiens, UniProt O60896+P30988)" result="21 pM"
substance="H-H[Aib]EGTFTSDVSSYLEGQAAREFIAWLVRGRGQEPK([AEEA-AEEA-γGlu-C20 diacid])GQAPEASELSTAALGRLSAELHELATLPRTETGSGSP-NH2 [Compound 0529]" assayed_target="human amylin receptor (hAmyR3) (Homo sapiens, UniProt O60896+P30988)" result="14.1 pM"
substance="H-H[Aib]EGTFTSDVSSYLEEQAARK([AEEA-AEEA-γGlu-C16 diacid])FIAWLVK([AEEA-AEEA-γGlu-C16 diacid])GRGGGEASELSTAALGRLSAELHELATLPRTETGSGSP-NH2 [Compound 0077]" assayed_target="human amylin receptor (hAmyR3) (Homo sapiens, UniProt O60896+P30988)" result="25.7 pM"
substance="H-H[Aib]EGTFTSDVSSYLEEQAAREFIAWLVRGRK([εLys-εLys-γGlu-C18 diacid])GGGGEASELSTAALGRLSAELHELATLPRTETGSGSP-NH2 [Compound 0656]" assayed_target="human amylin receptor (hAmyR3) (Homo sapiens, UniProt O60896+P30988)" result="13.3 pM"
substance="H-H[Aib]EGTFTSDVSSYLEEQAARK([γGlu-C18 diacid])FIAWLVRGRGGGGGGGGK([γGlu-C18 diacid])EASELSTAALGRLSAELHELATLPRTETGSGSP-NH2 [Compound 0160]" assayed_target="human amylin receptor (hAmyR3) (Homo sapiens, UniProt O60896+P30988)" result="27.3 pM"
substance="H-H[Aib]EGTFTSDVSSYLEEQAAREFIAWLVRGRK([AEEA-AEEA-γGlu-C20 diacid])GGGGSGGGEASELSTAALGRLSAELHELATLPRTETGSGSP-NH2 [Compound 0638]" assayed_target="human amylin receptor (hAmyR3) (Homo sapiens, UniProt O60896+P30988)" result="6.9 pM"
substance="H-H[Aib]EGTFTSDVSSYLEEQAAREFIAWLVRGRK([AEEA-AEEA-γGlu-C20 diacid])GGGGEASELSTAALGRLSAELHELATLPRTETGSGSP-NH2 [Compound 0502]" assayed_target="human amylin receptor (hAmyR3) (Homo sapiens, UniProt O60896+P30988)" result="9 pM"
